- Tested on: human peripheral blood mononuclear cells TNF-α
- assayDetails: Repression of TNF-α in human peripheral blood mononuclear cells (LPS, ELISA)
- Format: cell-based
- conditionDescription: PBMC, absolute IC50, test Top concentration 10000 nM, 3-fold diluted, 8 concentration (unmarked), read-out: hPBMC IC50
pIC50: −log10 of the molar value.
measurementKind: pIC50

>  <mol>
CC(C)[C@H](NC(=O)C(C)(F)F)[C@H](Oc1ccc2c(cnn2-c2ccc3nncn3c2)c1)c1cc(F)cc(F)c1

>  <testedTarget>
human peripheral blood mononuclear cells TNF-α

>  <recordedNumber>
8.12

$$$$
>  <mol>
C[C@H](NC(=O)C(C)(F)F)[C@H](Oc1ccc2c(cnn2-c2ccc3c(c2)CCCO3)c1)c1cc(F)cc(F)c1

>  <testedTarget>
human peripheral blood mononuclear cells TNF-α

>  <recordedNumber>
7.82

$$$$

====

- assayDetails: In vivo pharmacokinetic properties study in male SD rats
- conditionDescription: rat, plasma, iv 2 mg/kg, read-out: T½ (converted)

>  <compound>
C[C@H](NC(=O)C(C)(F)F)[C@H](Oc1ccc2c(cnn2-c2ccc3nncn3c2)c1)c1cc(F)cc(F)c1

>  <unitName>
h

>  <half-life>
3

$$$$
>  <compound>
CC(C)[C@H](NC(=O)C(C)(F)F)[C@H](Oc1ccc2c(cnn2-c2ccc(=O)n(C)c2)c1)c1ccccc1 [AZD9567, reference compound]

>  <unitName>
h

>  <half-life>
1.99

$$$$
>  <compound>
C[C@H](NC(=O)C(C)(F)F)[C@H](Oc1ccc2c(cnn2-c2cn(C)nn2)c1)c1cc(F)cc(F)c1

>  <unitName>
h

>  <half-life>
3.54

$$$$

====

- System: MMTV promoter luciferase reporter in HeLa cell line (GR transcription activation)
- assayDetails: MMTV transcription activation activity, luciferase reporter gene screening system (MMTV_GR transcription activation experiment)
- Format: cell-based
- conditionDescription: Homo sapiens, HeLa; maximum effect value; positive control 1000 nM dexamethasone; read-out: TA (MMTV transcription activation activity) Effect
Class (by Emax) -- low (below 60%), intermediate (60% to below 80%), high (80% or more)

>  <compound>
CC(C)[C@H](NC(=O)C(C)(F)F)[C@H](Oc1ccc2c(cnn2-c2ccc3nnnn3c2)c1)c1ccccc1 [WX024]

>  <groupLabel>
low

$$$$
>  <compound>
C[C@H](NC(=O)C(C)(F)F)[C@H](Oc1ccc2c(cnn2-c2ccc3nccn3c2)c1)c1cc(F)cc(F)c1 [WX003]

>  <groupLabel>
high

$$$$
>  <compound>
CC(C)[C@H](NC(=O)C(C)(F)F)[C@H](Oc1ccc2c(cnn2-c2cnn(C)c2)c1)c1ccccc1 [WX045]

>  <groupLabel>
low

$$$$
>  <compound>
Cc1nnc2ccc(-n3ncc4cc(O[C@H](c5cc(F)cc(F)c5)[C@H](C)NC(=O)C(C)(F)F)ccc43)cn12 [WX037]

>  <groupLabel>
intermediate

$$$$
>  <compound>
C[C@H](NC(=O)C(C)(F)F)[C@H](Oc1ccc2c(cnn2-c2ccc3nccn3c2)c1)c1ccccc1 [WX012]

>  <groupLabel>
high

$$$$
>  <compound>
C[C@H](NC(=O)C(C)(F)F)[C@H](Oc1ccc2c(cnn2-c2ccc3c(c2)CCCO3)c1)c1cc(F)cc(F)c1 [WX002]

>  <groupLabel>
intermediate

$$$$
>  <compound>
C[C@H](NC(=O)C(C)(F)F)[C@H](Oc1ccc2c(cnn2-c2ccn3cnnc3c2)c1)c1cc(F)cc(F)c1 [WX029]

>  <groupLabel>
intermediate

$$$$
>  <compound>
CC(C)[C@H](NC(=O)C(C)(F)F)[C@H](Oc1ccc2c(cnn2-c2cnn(C)c2)c1)c1cc(F)cc(F)c1 [WX042]

>  <groupLabel>
low

$$$$
>  <compound>
C[C@H](NC(=O)C(C)(F)F)[C@H](Oc1ccc2c(cnn2-c2ccc3nnnn3c2)c1)c1cc(F)cc(F)c1 [WX035]

>  <groupLabel>
high

$$$$
>  <compound>
CC(C)[C@H](NC(=O)C(C)(F)F)[C@H](Oc1ccc2c(cnn2-c2ccc3nccn3c2)c1)c1ccccc1 [WX004]

>  <groupLabel>
intermediate

$$$$

====

Emax values by entry
- Test system: MMTV promoter luciferase reporter in HeLa cell line (GR transcription activation)
- assayDetails: MMTV transcription activation activity, luciferase reporter gene screening system (MMTV_GR transcription activation experiment)
- Type: cell-based
- conditionDescription: Homo sapiens, HeLa; maximum effect value; positive control 1000 nM dexamethasone; read-out: TA (MMTV transcription activation activity) Effect
measurementKind: Emax (%)

>  <mol>
C[C@H](NC(=O)C(C)(F)F)[C@H](Oc1ccc2c(cnn2-c2ccc3nncn3c2)c1)c1cc(F)cc(F)c1

>  <recordedNumber>
75.2

$$$$
>  <mol>
C[C@H](NC(=O)C(C)(F)F)[C@H](Oc1ccc2c(cnn2-c2ccc3ncnn3c2)c1)c1cc(F)cc(F)c1

>  <recordedNumber>
89.2

$$$$
>  <mol>
CC(C)[C@H](NC(=O)C(C)(F)F)[C@H](Oc1ccc2c(cnn2-c2ccc3nncn3c2)c1)c1ccccc1

>  <recordedNumber>
69.4

$$$$
>  <mol>
C[C@H](NC(=O)C(C)(F)F)[C@H](Oc1ccc2c(cnn2-c2cnn(C)c2)c1)c1ccccc1

>  <recordedNumber>
72.8

$$$$
>  <mol>
C[C@H](NC(=O)C(C)(F)F)[C@H](Oc1ccc2c(cnn2-c2cn(C)nn2)c1)c1cc(F)cc(F)c1

>  <recordedNumber>
70.8

$$$$
>  <mol>
C[C@H](NC(=O)C(C)(F)F)[C@H](Oc1ccc2c(cnn2-c2ccc3nncn3c2)c1)c1ccccc1

>  <recordedNumber>
101

$$$$
>  <mol>
C[C@H](NC(=O)C(C)(F)F)[C@H](Oc1ccc2c(cnn2-c2cscn2)c1)c1ccccc1

>  <recordedNumber>
57.8

$$$$

====

- Tested on: human peripheral blood mononuclear cells TNF-α
- assayDetails: Repression of TNF-α in human peripheral blood mononuclear cells (LPS, ELISA)
- Type: cell-based
- conditionDescription: PBMC, absolute IC50, test Top concentration 100 nM, 3-fold diluted, 8 concentration (***), read-out: hPBMC IC50

>  <mol>
C[C@H](NC(=O)C(C)(F)F)[C@H](Oc1ccc2c(cnn2-c2ccc3nncn3c2)c1)c1cc(F)cc(F)c1

>  <IC50 (nM)>
0.98

$$$$
>  <mol>
C[C@H](NC(=O)C(C)(F)F)[C@H](Oc1ccc2c(cnn2-c2ccc3nccn3c2)c1)c1cc(F)cc(F)c1

>  <IC50 (nM)>
0.97

$$$$

====

- assayDetails: In vivo pharmacokinetic properties study in male SD rats
- conditionDescription: rat, plasma, iv 2 mg/kg, read-out: Vdss
Measured Vd, listed per entry.

>  <molecule>
C[C@H](NC(=O)C(C)(F)F)[C@H](Oc1ccc2c(cnn2-c2cn(C)nn2)c1)c1cc(F)cc(F)c1 [WX051]

>  <unitName>
L/kg

>  <Vd>
2.61

$$$$
>  <molecule>
C[C@H](NC(=O)C(C)(F)F)[C@H](Oc1ccc2c(cnn2-c2ccc3nncn3c2)c1)c1cc(F)cc(F)c1 [WX019]

>  <unitName>
L/kg

>  <Vd>
1.28

$$$$
>  <molecule>
CC(C)[C@H](NC(=O)C(C)(F)F)[C@H](Oc1ccc2c(cnn2-c2ccc(=O)n(C)c2)c1)c1ccccc1 [AZD9567, reference compound]

>  <unitName>
L/kg

>  <Vd>
0.56

$$$$
